system: SNK-6 (IL-2 2.5 ng/mL); assay: percent inhibition of viability; higher = more inhibition; details: 72 h; 2.5 nM
property: percent inhibition of viability
State the value with its unit after it.

Below, 5 molecules whose answers are already recorded.
Which percent inhibition of viability reading was recorded for the molecule CC(=O)OC[C@H]1O[C@@H]([S-])[C@H](OC(C)=O)[C@@H](OC(C)=O)[C@@H]1OC(C)=O.CCP(CC)CC.[Au+] [Auranofin] (max concentration tested 2500 nM) ?
17.1%

State the recorded percent inhibition of viability for this entry: COC[C@H](NC(=O)c1cnc(C)s1)C(=O)N[C@@H](COC)C(=O)N[C@@H](Cc1ccccc1)C(=O)[C@@]1(C)CO1 [Oprozomib] (max concentration tested 2500 nM)
-7.58%

Given the molecule CC(C)(C)c1nc(-c2cccc(NS(=O)(=O)c3c(F)cccc3F)c2F)c(-c2ccnc(N)n2)s1 [Dabrafenib] (max concentration tested 2500 nM) , what is its reported percent inhibition of viability?
1.84%

Find the recorded percent inhibition of viability belonging to CC(C)Cn1cnc2c(N)nc3ccccc3c21 [Imiquimod] (max concentration tested 2500 nM) and report it.
-13.6%

// lookup percent inhibition of viability for C[C@@H]1CN(CC(=O)Nc2ccc3c(c2)Cc2cccc(-c4cc(=O)cc(N5CCOCC5)o4)c2S3)C[C@H](C)O1 (max concentration tested 25000 nM)
-10.7%

Please turn your attention to the following entry.
Fill in the blank: the reported percent inhibition of viability of COc1ccc2c(OCc3nnc4ccc(-c5ccccc5)nn34)ccnc2c1 [AMG-208] (max concentration tested 2500 nM) is ____.
11.6%

###

Examples of compounds with documented drug sensitivity score follow.
test system: normal primary NK cells, pool 1 (3 donors) (IL-2 2.5 ng/mL); assay: drug sensitivity score (DSS) (DSS units); higher = more sensitive; extreme values may be limits of the assay; details: 72 h

Record excerpt, results attached:
Looking for the measured drug sensitivity score of N#CC1(c2ccc(NC(=O)c3cccnc3NCc3ccncc3)cc2)CCCC1 [Apatinib] (max concentration tested 10000 nM) , can you help?
0

Endpoint output: drug sensitivity score of Cc1cc(Nc2nc(N[C@@H](C)c3ncc(F)cn3)ncc2Cl)[nH]n1 [AZD1480] (max concentration tested 1000 nM) . Value?
8.59

Now look at this entry.
Item under review: NC1(c2ccc(-c3nc4ccn5c(=O)[nH]nc5c4cc3-c3ccccc3)cc2)CCC1 [MK-2206] (max concentration tested 1000 nM) . Reported drug sensitivity score?
1.31

###

system: IMC-1 (IL-2 20 ng/mL); assay: percent inhibition of viability; higher = more inhibition; conditions: 72 h; 10 nM
property: percent inhibition of viability (%)
Report the figure in % without appending any unit label.

A selection of reference data follows.
Field request: percent inhibition of viability | item: Cn1c(=O)n(-c2ccc(C(C)(C)C#N)cc2)c2c3cc(-c4cnc5ccccc5c4)ccc3ncc21 [Dactolisib] (max concentration tested 1000 nM)
-15.1

# input compound: CN(C)C(=N)NC(=N)N [Metformin] (max concentration tested 100000 nM) ; wanted: its percent inhibition of viability
-3.89

// returns reported percent inhibition of viability for input CC(C)NC[C@@H](C(=O)N1CCN(c2ncnc3c2[C@H](C)C[C@H]3O)CC1)c1ccc(Cl)cc1 [Ipatasertib] (max concentration tested 10000 nM)
2.26

Others:
Please report the recorded percent inhibition of viability for CC1(C)CCC(c2ccc(Cl)cc2)=C(CN2CCN(c3ccc(C(=O)NS(=O)(=O)c4ccc(N[C@H](CCN5CCOCC5)CSc5ccccc5)c(S(=O)(=O)C(F)(F)F)c4)cc3)CC2)C1 [Navitoclax] (max concentration tested 10000 nM) .
-0.75

May I ask what percent inhibition of viability has been recorded for Nc1nc(Nc2ccc3c(c2)CC[C@@H](N2CCCC2)CC3)nn1-c1cc2c(nn1)-c1ccccc1CCC2 [BGB324] (max concentration tested 10000 nM) ?
-0.15

I would be grateful if you could share the reported percent inhibition of viability for CS(=O)(=O)N1CCN(Cc2cc3nc(-c4cccc5[nH]ncc45)nc(N4CCOCC4)c3s2)CC1 [Pictilisib] (max concentration tested 10000 nM) .
-5.88

GET /values?readout=percent inhibition of viability&item= COc1cc(CCc2cc(NC(=O)c3ccc(N4CC(C)NC(C)C4)cc3)n[nH]2)cc(OC)c1 (stereo unspecified) [AZD4547] (max concentration tested 1000 nM)
2.58

Any idea what percent inhibition of viability was measured for COc1cc([C@@H]2c3cc4c(cc3[C@@H](O[C@@H]3O[C@@H]5CO[C@@H](C)O[C@H]5[C@H](O)[C@H]3O)[C@H]3COC(=O)[C@H]23)OCO4)cc(OC)c1O [Etoposide] (max concentration tested 10000 nM) ?
1.75
